Molecular target: human recombinant AT1 receptor (Homo sapiens)
Sequence (P30556 whole entry): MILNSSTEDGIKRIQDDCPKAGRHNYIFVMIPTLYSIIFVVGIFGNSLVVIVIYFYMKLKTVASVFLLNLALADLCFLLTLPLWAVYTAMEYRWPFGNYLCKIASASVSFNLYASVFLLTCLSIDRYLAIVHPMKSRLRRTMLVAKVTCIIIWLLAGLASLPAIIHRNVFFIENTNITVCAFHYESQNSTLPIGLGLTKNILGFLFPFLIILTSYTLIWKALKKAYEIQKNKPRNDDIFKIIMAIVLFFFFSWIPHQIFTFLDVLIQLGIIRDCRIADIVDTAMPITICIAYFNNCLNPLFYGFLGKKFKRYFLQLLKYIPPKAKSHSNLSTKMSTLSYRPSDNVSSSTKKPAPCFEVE
Assay: Binding to AT1 receptor, radiometric scintillation assay (Eurofins)
Settings: ligand 125I(sar1,Ile8)-AT-II, tested at 1 and 10 μM
OUTCOME_MEASURE: IC50

INSERT INTO measurements (compound, outcome_measure, result) VALUES
  ('Cc1nccn1Cc1ccc(-c2cc(CC(C)C)sc2S(=O)(=O)NC(=O)NCCC(F)(F)F)nc1 [Example 19]', 'IC50', '83 µM'),
  ('CC(C)Cc1cc(-c2ccc(Cn3ccnc3C(C)C)c(F)c2)c(S(=O)(=O)NC(=O)NCCC(F)(F)F)s1.O=C(O)C(F)(F)F [Example 41, trifluoroacetic acid]', 'IC50', '4 µM'),
  ('Cc1nccn1Cc1ccc(-c2cc(CC(C)C)sc2S(=O)(=O)NC(=O)NCC(C)C)cc1F.O=C(O)C(F)(F)F [Example 39, trifluoroacetic acid]', 'IC50', '16 µM'),
  ('CCc1nccn1Cc1ccc(-c2cc(CC(C)C)sc2S(=O)(=O)NC(=O)NCc2ccccc2)cc1 [Example 6]', 'IC50', '> 1 µM');

---

Molecular target: CYP2C9 (Homo sapiens)
Sequence (P11712 whole entry): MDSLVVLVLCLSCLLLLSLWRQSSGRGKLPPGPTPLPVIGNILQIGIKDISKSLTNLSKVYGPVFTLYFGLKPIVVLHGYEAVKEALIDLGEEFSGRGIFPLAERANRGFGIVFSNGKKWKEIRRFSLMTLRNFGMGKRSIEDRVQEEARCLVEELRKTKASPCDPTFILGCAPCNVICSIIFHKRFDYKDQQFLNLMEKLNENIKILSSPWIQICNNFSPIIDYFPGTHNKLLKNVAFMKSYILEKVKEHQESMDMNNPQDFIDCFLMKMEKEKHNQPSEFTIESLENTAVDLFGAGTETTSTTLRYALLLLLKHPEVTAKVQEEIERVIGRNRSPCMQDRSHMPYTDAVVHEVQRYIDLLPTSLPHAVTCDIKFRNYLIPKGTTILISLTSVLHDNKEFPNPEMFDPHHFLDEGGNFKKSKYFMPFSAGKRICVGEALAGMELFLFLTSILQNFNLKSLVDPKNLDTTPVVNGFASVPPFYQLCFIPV
Assay: CYP inhibition in human liver microsomes, CYP2C9
Assay type: in vitro ADME
Set-up: incubated with human liver microsomes; tissue Eurofins ITEMG232; host or cells: human liver microsomes
Conditions: probe diclofenac, substrate diclofenac, read-out: CYP2C9 Inh %
Description: The following substrates were used: CYP1A phenacetin, CYP2B6 bupropion, CYP2C8 paclitaxel and amodiaquine, CYP2C9 diclofenac, CYP2C19 omeprazole, CYP2D6 dextromethorphan, CYP3A midazolam and testosterone. At the end of the incubation, the formation of metabolite was monitored by HPLC-MS/MS as the peak area response.
Please assign a class to every record based on measured inhibition at 10 µM, with ranges label 0: < 30%; label 1: ≥ 30% and < 50%; label 2: ≥ 50%

INSERT INTO assay_data (given_smiles, target_system, assigned_class) VALUES
  ('CCc1nccn1Cc1ccc(-c2cc(CC(C)C)sc2S(=O)(=O)NC(=O)NCc2ccccn2)cc1', 'CYP2C9 (Homo sapiens)', 'label 0'),
  ('Cc1nccn1Cc1ccc(-c2cc(CC(C)C)sc2S(=O)(=O)NC(=O)NCc2ccccn2)cc1F', 'CYP2C9 (Homo sapiens)', 'label 1'),
  ('Cc1cn(Cc2ccc(-c3cc(CC(C)C)sc3S(=O)(=O)NC(=O)NCc3ccccn3)cc2)c(C)n1', 'CYP2C9 (Homo sapiens)', 'label 0'),
  ('Cc1nccn1Cc1ccc(-c2cc(CC(C)C)sc2S(=O)(=O)NC(=O)N(C)Cc2ccccn2)cc1F', 'CYP2C9 (Homo sapiens)', 'label 1'),
  ('Cc1nccn1Cc1ccc(-c2cc(CC(C)C)sc2S(=O)(=O)NC(=O)NCCc2c[nH]cn2)cc1F', 'CYP2C9 (Homo sapiens)', 'label 2'),
  ('Cc1nccn1Cc1ccc(-c2cc(CC(C)C)sc2S(=O)(=O)NC(=O)NCCCC(F)(F)F)cc1', 'CYP2C9 (Homo sapiens)', 'label 0'),
  ('Cc1nccn1Cc1ccc(-c2cc(CC(C)C)sc2S(=O)(=O)NC(=O)NCC2CCC(F)(F)CC2)cc1F.O=C(O)C(F)(F)F', 'CYP2C9 (Homo sapiens)', 'label 2'),
  ('Cc1nccn1Cc1ccc(-c2cc(CC(C)C)sc2S(=O)(=O)NC(=O)NCc2cc(Cl)ccn2)cc1F.O=C(O)C(F)(F)F', 'CYP2C9 (Homo sapiens)', 'label 1'),
  ('Cc1cn(Cc2ccc(-c3cc(CC(C)C)sc3S(=O)(=O)NC(=O)NCCC(F)(F)F)cc2)c(C)n1', 'CYP2C9 (Homo sapiens)', 'label 0'),
  ('Cc1nccn1Cc1ccc(-c2cc(CC(C)C)sc2S(=O)(=O)NC(=O)NCC(C)C)cc1F.O=C(O)C(F)(F)F', 'CYP2C9 (Homo sapiens)', 'label 1'),
  ('CCCCNC(=O)NS(=O)(=O)c1sc(CC(C)C)cc1-c1ccc(Cn2ccnc2C)cc1', 'CYP2C9 (Homo sapiens)', 'label 1'),
  ('CCc1nccn1Cc1ccc(-c2cc(CC(C)C)sc2S(=O)(=O)NC(=O)NCCOC)cc1', 'CYP2C9 (Homo sapiens)', 'label 0'),
  ('CCCNC(=O)NS(=O)(=O)c1sc(CC(C)C)cc1-c1ccc(Cn2ccnc2CC)c(F)c1.O=C(O)C(F)(F)F', 'CYP2C9 (Homo sapiens)', 'label 1'),
  ('Cc1nccn1Cc1ccc(-c2cc(CC(C)C)sc2S(=O)(=O)NC(=O)NCc2cccs2)cc1F.O=C(O)C(F)(F)F', 'CYP2C9 (Homo sapiens)', 'label 2'),
  ('CCc1nccn1Cc1ccc(-c2cc(CC(C)C)sc2S(=O)(=O)NC(=O)NCCC(F)(F)F)cc1F.O=C(O)C(F)(F)F', 'CYP2C9 (Homo sapiens)', 'label 2'),
  ('Cc1nccn1Cc1ccc(-c2cc(CC(C)C)sc2S(=O)(=O)NC(=O)NCCC(F)(F)F)cc1F', 'CYP2C9 (Homo sapiens)', 'label 2'),
  ('CC(C)Cc1cc(-c2ccc(Cn3ccnc3C(C)C)c(F)c2)c(S(=O)(=O)NC(=O)NCCC(F)(F)F)s1.O=C(O)C(F)(F)F', 'CYP2C9 (Homo sapiens)', 'label 2'),
  ('Cc1nccn1Cc1ccc(-c2cc(CC(C)C)sc2S(=O)(=O)NC(=O)NCc2ccc(F)c(F)c2)cc1F.O=C(O)C(F)(F)F', 'CYP2C9 (Homo sapiens)', 'label 2'),
  ('Cc1nccn1Cc1ccc(-c2cc(CC(C)C)sc2S(=O)(=O)NC(=O)NCCCC(F)(F)F)cc1F', 'CYP2C9 (Homo sapiens)', 'label 2'),
  ('Cc1nccn1Cc1ccc(-c2cc(CC(C)C)sc2S(=O)(=O)NC(=O)NCCC(F)(F)F)cc1', 'CYP2C9 (Homo sapiens)', 'label 0'),
  ('Cc1nccn1Cc1ccc(-c2cc(CC(C)C)sc2S(=O)(=O)NC(=O)NCc2ccccc2)cc1F', 'CYP2C9 (Homo sapiens)', 'label 2');

Origin of values: patent US12435072B2
